System: Yap1 mRNA
Experiment: Dose-dependent inhibition of human Yap1 in A-431 cells (Example 8, 10,000 cells per well, RTS4814)
Assay type: cell-based
Conditions: 2000.00 nM; A-431 cells, 10,000 cells per well, free uptake, approximately 48 hours, RTS4814
Strand notation (5' to 3'): a small letter for the sugar, then the base; units joined by * are phosphorothioate-linked, units joined directly phosphodiester-linked; [ ] holds rarer units or linkages, { } end groups; capitals alone tell only the bases. k = constrained ethyl (cEt); [5mC] = 5-methylcytosine; d = 2'-deoxy (DNA)
Reported Yap1 mRNA, % UTC is given for each of the following substances.
Field format: number, assumed % UTC, no unit text.

1076556 (kG*kT*kA*dT*dA*dG*dG*d[5mC]*dA*dG*dA*dA*dG*k[5mC]*kA*kA; antisense) [compound 1076556] : 11
1075785 (k[5mC]*kA*kT*dT*dT*dT*dA*dT*dA*dG*dG*dG*d[5mC]*k[5mC]*kA*kT; antisense) [compound 1075785] : 3
1075048 (antisense kG*kT*kA*dA*dA*dA*dT*dT*dA*dG*dA*d[5mC]*dT*k[5mC]*k[5mC]*k[5mC]) [compound 1075048] : 5
1074795 (k[5mC]*k[5mC]*kA*dA*dA*dT*d[5mC]*dA*dA*dT*dG*dT*dG*k[5mC]*kT*k[5mC]; antisense) [compound 1074795] : 5
1076004 (kT*kA*kA*dT*dT*dT*dA*dA*dT*dG*dG*d[5mC]*dT*kT*kG*k[5mC]; antisense) [compound 1076004] : 2

Record 1074318 (antisense kG*kG*kA*dG*dA*dA*dT*dT*dT*dG*d[5mC]*dT*dG*kT*kG*k[5mC]) [compound 1074318] / Yap1 mRNA, Yap1 mRNA, % UTC recorded as 4

Record 1076489 (k[5mC]*kA*kA*dA*dA*dT*dA*dG*dG*dT*dG*dA*dG*kT*k[5mC]*kA; antisense) [compound 1076489] / Yap1 mRNA, Yap1 mRNA, % UTC recorded as 3

Record 1076461 (kG*kA*kT*dT*dA*dA*dT*dA*dT*dA*dG*d[5mC]*d[5mC]*k[5mC]*k[5mC]*kT; antisense) [compound 1076461] / Yap1 mRNA, Yap1 mRNA, % UTC recorded as 3

Record 1075081 (antisense kG*kA*kT*dT*dA*d[5mC]*dA*dA*dA*dG*dA*d[5mC]*dA*kG*k[5mC]*k[5mC]) [compound 1075081] / Yap1 mRNA, Yap1 mRNA, % UTC recorded as 9

Record 1076523 (kA*kT*kT*dT*dA*dT*dA*dT*d[5mC]*dA*dG*dG*dT*k[5mC]*kA*kA; antisense) [compound 1076523] / Yap1 mRNA, Yap1 mRNA, % UTC recorded as 7
